Listed compounds paired with reported DBIL
Species on record: Rattus norvegicus
Assay: Open TG-GATES - Regimen: Daily Repeat
Format: toxicity, organism-based, Sprague-Dawley
Set-up: regimen Daily Repeat, gender Male, age 6 weeks
Settings: in vivo, po, 1000 mg/kg, […], tissue Plasma, route gavage, dose level High, time 7 day
Write the answer as a number in mg/dL, unit excluded.

Sample answers from the record:
The compound listed as `NC(N)=Nc1nc(CSCCC(N)=NS(N)(=O)=O)cs1` has a reported DBIL of 0.088

// field: DBIL; key: CCOc1ccc(NC(=O)CC(C)O)cc1 (stereo unspecified) ; value = 0.032

Entry CC(C)OC(=O)C(C)(C)Oc1ccc(C(=O)c2ccc(Cl)cc2)cc1 [FENOFIBRATE] , DBIL reported as 0.018

Continuing:
Memo: COc1ccc2[nH]c([S+]([O-])Cc3ncc(C)c(OC)c3C)nc2c1 (stereo unspecified) , reported DBIL: 0.064

So, `COC1=CC(=O)C[C@@H](C)[C@]12Oc1c(Cl)c(OC)cc(OC)c1C2=O` ? Its DBIL was 0.064

Lab book: DBIL of CCOC(=O)CCC(=O)O[C@H]1[C@H](O[C@@H]2[C@@H](C)[C@H](O[C@H]3C[C@@](C)(OC)[C@@H](O)[C@H](C)O3)[C@@H](C)C(=O)O[C@H](CC)[C@@](C)(O)[C@H](O)[C@@H](C)C(=O)[C@H](C)C[C@@]2(C)O)O[C@H](C)C[C@@H]1N(C)C [ERYTHROMYCIN ETHYLSUCCINATE] noted as 0

---

Organism: Rattus norvegicus
Experiment: Open TG-GATES - Regimen: Daily Repeat
Assay type: toxicity, organism-based, Sprague-Dawley
Set-up: regimen Daily Repeat, gender Male, age 6 weeks
Details: in vivo, po, 10 mg/kg, 72 h, tissue Plasma, route gavage, dose level Low, time 3 day
OBSERVED_PROPERTY: IP (mg/dL)
Give the value, in units of mg/dL, as a plain number.

Quick note, IP for CC(C)OC(=O)C(C)(C)Oc1ccc(C(=O)c2ccc(Cl)cc2)cc1 [FENOFIBRATE] landed at 8.3

For `CN(C)CCN(Cc1cccs1)c1ccccn1` the compound record lists IP as 7.8

Measured IP of `CC1=C(/C=C/C(C)=C/C=C/C(C)=C/CO)C(C)(C)CCC1` : 6.5

Continue with the next compound.
IP for `CN(C)CCCN1c2ccccc2CCc2ccccc21` is 7.7

---

Species on record: Rattus norvegicus
Experiment: Open TG-GATES - Regimen: Daily Repeat
Type: toxicity, organism-based, Sprague-Dawley
Set-up: regimen Daily Repeat, gender Male, age 6 weeks
Conditions: in vivo, po, 1000 mg/kg, […], tissue Blood, route gavage, dose level High, time 14 day
Examples of compounds with documented MCHC follow.
Please reply with the bare figure in % and do not write the unit itself.

Sample CCOC(=O)CCC(=O)O[C@H]1[C@H](O[C@@H]2[C@@H](C)[C@H](O[C@H]3C[C@@](C)(OC)[C@@H](O)[C@H](C)O3)[C@@H](C)C(=O)O[C@H](CC)[C@@](C)(O)[C@H](O)[C@@H](C)C(=O)[C@H](C)C[C@@]2(C)O)O[C@H](C)C[C@@H]1N(C)C [ERYTHROMYCIN ETHYLSUCCINATE] ; MCHC observed: 34.8

Data point: CCOc1ccc(NC(=O)CC(C)O)cc1 (stereo unspecified) [BUCETIN] ; MCHC = 32.7

Noted for CC(C)OC(=O)C(C)(C)Oc1ccc(C(=O)c2ccc(Cl)cc2)cc1 [FENOFIBRATE] : its MCHC reads 33.3

compound NC(N)=Nc1nc(CSCCC(N)=NS(N)(=O)=O)cs1 [FAMOTIDINE] , MCHC observed: 34.2

COc1ccc2[nH]c([S+]([O-])Cc3ncc(C)c(OC)c3C)nc2c1 (stereo unspecified) [OMEPRAZOLE] has a reported MCHC of 34.2

Let us examine a further case.
Data point: COC1=CC(=O)C[C@@H](C)[C@]12Oc1c(Cl)c(OC)cc(OC)c1C2=O [GRISEOFULVIN] ; MCHC = 33.8
